Test: NCI Yeast Anticancer Drug Screen. Data for the mlh1 rad18 strain (AID 175)
Settings: S. cerevisiae mlh1 rad18 strain growth inhibition; at 50.0 µM; stronger effect = higher value
Protocol: Growth inhibition of yeast strains with defined genetic alterations is measured as a screen for potential anti-cancer activity. Selected strains with alterations in DNA damage repair or cell cycle control were exposed to compounds and growth inhibition was measured relative to vehicle treated controls. The strain used in this assay is mlh1 rad18
This is part of a sample that, as a whole, favours compounds with a hit. Of some 79,000 tested, about 15% had one in any assay.
Param threshold (90%) applies to growth inhibition; output 1 when value >= threshold, -1 when value < threshold.

The following compounds have reported results that may help.
[
  {
    "COMPOUND": "C=C1CC(Cn2cc(Br)c(=O)[nH]c2=O)(c2ccc(Br)cc2)OC1=O (stereo unspecified)",
    "ASSIGNED CATEGORY": 1
  },
  {
    "COMPOUND": "C[N+](C)([O-])CCC=C1c2ccccc2CCc2ccccc21",
    "ASSIGNED CATEGORY": -1
  },
  {
    "COMPOUND": "O=C(OCc1ccccc1)N1N=NC2C1C1CC(OCc3ccccc3)(OCc3ccccc3)C2O1 (stereo unspecified)",
    "ASSIGNED CATEGORY": -1
  }
]

Continue with the next compound.
[Q] Quick check: does `Cc1ccc(C)c(N2C(=O)C(=O)c3c(C)ccc(C)c32)c1` have growth inhibition greater than or equal to 90%?
[A] 1

###

experiment: NCI Yeast Anticancer Drug Screen. Data for the cln2 rad14 strain (AID 165);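 note: 0% = growth equal to vehicle treated cultures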; conditions: S. cerevisiae cln2 rad14 strain, at 50.0 µM
About 79,000 compounds went through this panel and 15% of them were active in at least one assay; those are over-represented in the sample as a whole. The source made the active and inactive calls. No stated cut-off is given here; in the data, active means growth inhibition above about 70%; inactive means the rest.
Return exactly one item of True = active, False = inactive

The following compounds have reported results that may help.
[
  {
    "COMPOUND": "O=P(Nc1ccccc1)(OCc1ccccc1)OCc1ccccc1",
    "ASSIGNED CATEGORY": "False"
  },
  {
    "COMPOUND": "COc1cc2c(c(OC)c1OC)-c1ccc(=O)c(OC)cc1[C@@H](N)CC2",
    "ASSIGNED CATEGORY": "False"
  },
  {
    "COMPOUND": "O=c1oc(-c2ccc(Cl)cc2[N+](=O)[O-])nc2ccccc12",
    "ASSIGNED CATEGORY": "False"
  },
  {
    "COMPOUND": "Cc1ccc2c(c1)C1(SC(CC(=O)O)C(=O)N1c1ccc(Cl)cc1)C(=O)N2 (centres undefined)",
    "ASSIGNED CATEGORY": "False"
  }
]

[Q] Any idea what this test logged for `Cc1cc(N)c2cc(NC(=O)Nc3ccc4nc(C)cc(N)c4c3)ccc2n1` ?
[A] True

[Q] Any idea what this test logged for CC(CO)CCC(=O)C(C)C1C(=O)CC2CC3CC(O)CCC3(C)CC21C (centres undefined) ?
[A] True

[Q] Any idea what this test logged for `O=C1Oc2cc3c(c4cccc1c24)OCN(c1ccccc1)C3` ?
[A] False

[Q] Any idea what this test logged for `CCCCCCCCCCCCNCC#N` ?
[A] False

[Q] Any idea what this test logged for `COc1ccc(/C=C(/NC(=O)c2ccccc2)C(=O)Nc2ccccc2)cc1OC` ?
[A] False

###

Assay: NCI Yeast Anticancer Drug Screen. Data for the mec2-1 strain (AID 157)
Details: S. cerevisiae mec2-1 strain, at 50.0 µM (retest, dose inferred, filed as 5.0)
Protocol: Growth inhibition of yeast strains with defined genetic alterations is measured as a screen for potential anti-cancer activity. Selected strains with alterations in DNA damage repair or cell cycle control were exposed to compounds and growth inhibition was measured relative to vehicle treated controls. The strain used in this assay is mec2-1
This is part of a sample that, as a whole, favours compounds with a hit. Of some 79,000 tested, about 15% had one in any assay. Active and inactive are the calls of the source. No stated cut-off is given here; in the data, active means growth inhibition above about 70%; inactive means the rest.
Return exactly one item of active, inactive

The following compounds have reported results that may help.
[
  {
    "COMPOUND": "O=S(=O)(O)c1ccc(N=Nc2ccc3c(S(=O)(=O)O)cccc3c2O)c2ccccc12",
    "ASSIGNED CATEGORY": "inactive"
  },
  {
    "COMPOUND": "CC(C)C(=O)N1Cc2cc(Cl)cc(Cl)c2OC(=O)c2ccccc21",
    "ASSIGNED CATEGORY": "inactive"
  },
  {
    "COMPOUND": "OCC1CC[N-]CC1.OCC1CC[N-]CC1.[Cl][Pt+2]([Cl])([Cl])[Cl]",
    "ASSIGNED CATEGORY": "active"
  }
]

[Q] Any idea what this test logged for COc1cc(C2C(C(=O)O)=C(C)Oc3cc4c(cc32)OCO4)cc(OC)c1OC (stereo unspecified) ?
[A] active

[Q] Any idea what this test logged for COC(=O)N/N=C(/CC1(O)C(=O)Nc2ccccc21)c1ccc(Cl)cc1Cl (stereo unspecified) ?
[A] active

[Q] Any idea what this test logged for `O=C(O)c1cc2c3ccccc3sc2c2ccccc12` ?
[A] inactive

###

test: NCI Yeast Anticancer Drug Screen. Data for the sgs1 mgt1 strain (AID 161);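 note: 0% = growth of cultures given vehicle only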; settings: S. cerevisiae sgs1 mgt1 strain, at 50.0 µM (retest, dose inferred, filed as 5.0)
About 79,000 compounds went through this panel and 15% of them were active in at least one assay; those are over-represented in the sample as a whole. The source made the active and inactive calls. No stated cut-off is given here; in the data, active means growth inhibition above about 70%; inactive means the rest.
Return exactly one item of active, inactive

[
  {
    "COMPOUND": "OCN(CO)c1ccc2c(c1)Cc1cc(F)ccc1-2",
    "ASSIGNED CATEGORY": "active"
  },
  {
    "COMPOUND": "O=C(/C(=C\\c1ccccc1)c1ccccc1)c1ccc(Br)cc1",
    "ASSIGNED CATEGORY": "inactive"
  }
]

[Q] Any idea what this test logged for `O=C1CCC(c2ccccc2)=NN1c1nc2ccccc2s1` ?
[A] active

[Q] Any idea what this test logged for `C#CC(C)(C)OC(C)=O` ?
[A] inactive

[Q] Any idea what this test logged for `Clc1cc(Cl)c(OCCOCCI)c(Cl)c1` ?
[A] inactive

[Q] Any idea what this test logged for `CCN(c1ccc(C=O)cc1)c1ccc([N+](=O)[O-])cc1[N+](=O)[O-]` ?
[A] active

###

Recorded growth inhibition by entry
Assay: NCI Yeast Anticancer Drug Screen. Data for the mec2-1 strain (AID 157)
Conditions: S. cerevisiae mec2-1 strain, at 5.0 µM (retest, dose inferred, filed as 0.5), stronger effect = higher value
Method: Growth inhibition of yeast strains with defined genetic alterations is measured as a screen for potential anti-cancer activity. Selected strains with alterations in DNA damage repair or cell cycle control were exposed to compounds and growth inhibition was measured relative to vehicle treated controls. The strain used in this assay is mec2-1
About 79,000 compounds went through this panel and 15% of them were active in at least one assay; those are over-represented in the sample as a whole.
Give the quantity in %, number only.

Some compounds with known growth inhibition results, for comparison:
[
  {
    "COMPOUND": "CN1c2ccccc2Sc2c1n[nH]c2-c1ccccc1",
    "UNIT LABEL": "%",
    "growth inhibition": -3
  },
  {
    "COMPOUND": "COc1cccc2c1C(=O)c1c(O)c3c(c(O)c1C2=O)C[C@@](O)(C(=O)CO)C[C@@H]3OC1CC(N)CC(C)O1 (some centres not stated)",
    "UNIT LABEL": "%",
    "growth inhibition": 24
  }
]

[Q] Query: growth inhibition; subject: `Cc1cc2nc3c(C)c4ccccc4c(C)n3c2cc1C`
[A] 69

[Q] Query: growth inhibition; subject: `O/N=C(/CCc1ccccc1)c1ccccc1`
[A] 2

[Q] Query: growth inhibition; subject: CCOC(=O)C(Br)C(Br)c1cccc(Cl)c1 (configuration not stated)
[A] 64

[Q] Query: growth inhibition; subject: CCC(C)(O)C#Cc1ccc(C)nc1 (configuration not stated)
[A] 0

###

assay: NCI Yeast Anticancer Drug Screen. Data for the cln2 rad14 strain (AID 165);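 note: 0% = growth equal to vehicle treated cultures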; details: S. cerevisiae cln2 rad14 strain, at 50.0 µM, stronger effect = higher value
This is part of a sample that, as a whole, favours compounds with a hit. Of some 79,000 tested, about 15% had one in any assay.
QUANTITY NAME: growth inhibition (%)
Give the quantity in %, number only.

Some molecules with known growth inhibition results, for comparison:
[
  {
    "MOLECULE": "OCN(CO)c1ccc2c(c1)Cc1cc(F)ccc1-2",
    "REPORTED MEASUREMENT": 96.5
  },
  {
    "MOLECULE": "O=C(c1ccc(OCC(O)CN2CCN(c3ccccc3)CC2)cc1)c1cc2ccccc2c2ccccc12 (centres undefined)",
    "REPORTED MEASUREMENT": 91.5
  },
  {
    "MOLECULE": "COc1ccc2c(c1)C(Br)CCC(Br)C2=O (centres undefined)",
    "REPORTED MEASUREMENT": 33.5
  }
]

With those in mind, consider the next molecule.
[Q] Query: growth inhibition; subject: `CC(C)OC(=O)Oc1c(Cl)c(Cl)c(Cl)c(Cl)c1Cl`
[A] 15.9
